Biological target: human MC1R (Homo sapiens, UniProt Q01726)
Construct: expressed in transfected cells; host or cells: HEK-293 cells stably expressing hMC1R and the GScAMP22F cAMP sensor
Sequence (Q01726 whole entry): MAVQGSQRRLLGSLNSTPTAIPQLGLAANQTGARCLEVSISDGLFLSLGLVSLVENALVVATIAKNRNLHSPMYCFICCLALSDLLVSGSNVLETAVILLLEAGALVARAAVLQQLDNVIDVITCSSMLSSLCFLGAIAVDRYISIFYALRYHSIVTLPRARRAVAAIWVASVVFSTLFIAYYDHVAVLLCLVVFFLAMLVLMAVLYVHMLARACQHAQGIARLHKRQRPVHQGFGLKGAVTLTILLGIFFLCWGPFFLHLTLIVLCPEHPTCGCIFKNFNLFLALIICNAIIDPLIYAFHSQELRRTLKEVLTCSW
Assay: split-luciferase cAMP sensor assay, agonist mode, hMC1R
Format: cell-based
Details: MC4R versus MC1R
Positions of bridges follow the written chain, without caps; N, C: chain ends. Non-standard residues stand in square brackets, D forms with d. Residues, ends and D or L forms follow the SMILES beside them. Cit = NC(=O)NCCC[C@H](N)C(=O)O; Nle = CCCC[C@H](N)C(=O)O; Aib = CC(C)(N)C(=O)O
Below is a list of entries, each paired with its recorded MC4R selectivity vs MC1R value.
Measurement Type: MC4R selectivity vs MC1R

- CC1(C)NC(=O)CSC[C@@H](C(N)=O)NC(=O)[C@H](Cc2c[nH]c3ccccc23)NC(=O)[C@H](CCCNC(=N)N)NC(=O)[C@@H](Cc2ccccc2)NC(=O)[C@H](CCCNC(N)=O)NC1=O [CTX-1649] ({CH2CO}-[Aib][Cit][dF]RWC-NH2; thioether N-6): 1652
- COc1ccc(C[C@H]2NC(=O)[C@H](CCCNC(=N)N)NC(=O)C(C)(C)NC(=O)[C@@H](NC(=O)[C@H](CCCNC(=N)N)NC(C)=O)CSSC[C@@H](C(N)=O)NC(=O)[C@@H](Cc3c[nH]c4ccccc34)NC(=O)[C@H](CCCNC(=N)N)NC2=O)cc1 [CTX-1297] (Ac-RC[Aib]R[dY](Me)R[dW]C-NH2; disulfide 2-8 (inferred)): 0.52
- CCCC[C@H](NC(=O)[C@H](CCCNC(=N)N)NC(C)=O)C(=O)N[C@H]1CSSC[C@@H](C(N)=O)NC(=O)[C@H](Cc2c[nH]c3ccccc23)NC(=O)[C@H](CCCNC(=N)N)NC(=O)[C@@H](Cc2ccccc2)NC(=O)[C@H](CCCNC(=N)N)NC1=O [CTX-1228, Arg-Nle-cyclo(Cys-Arg-D-Phe-Arg-Trp-Cys)] (Ac-R[Nle]CR[dF]RWC-NH2; disulfide 3-8 (inferred)): 3.16
- C[C@H]1NC(=O)CSC[C@@H](C(N)=O)NC(=O)[C@H](Cc2ccccc2)NC(=O)[C@H](CCCNC(=N)N)NC(=O)[C@@H](Cc2ccccc2)NC(=O)[C@H](Cc2c[nH]cn2)NC1=O [CTX-1656] ({CH2CO}-[dA]H[dF]RFC-NH2; thioether N-6): 1
- CC(=O)N[C@H]1CSSC[C@@H](C(N)=O)NC(=O)[C@H](Cc2c[nH]c3ccccc23)NC(=O)[C@H](CCCNC(=N)N)NC(=O)[C@@H](Cc2ccccc2)NC(=O)[C@H](CCCNC(N)=O)NC(=O)[C@@H](C)NC1=O [CTX-1628, cyclo(Cys-D-Ala-Cit-D-Phe-Arg-Trp-Cys)] (Ac-C[dA][Cit][dF]RWC-NH2; disulfide 1-7 (inferred)): 191
- N=C(N)NCCC[C@@H]1NC(=O)[C@@H](Cc2ccccc2)NC(=O)[C@H](Cc2c[nH]cn2)NC(=O)CNC(=O)CSC[C@@H](C(N)=O)NC(=O)[C@H](Cc2c[nH]c3ccccc23)NC1=O [CTX-1644] ({CH2CO}-GH[dF]RWC-NH2; thioether N-6): 4.84
- CC1(C)NC(=O)CSC[C@@H](C(N)=O)NC(=O)[C@H](Cc2ccccc2)NC(=O)[C@H](CCCNC(=N)N)NC(=O)[C@@H](Cc2ccccc2)NC(=O)[C@H](CCCNC(=N)N)NC1=O [CTX-1651] ({CH2CO}-[Aib]R[dF]RFC-NH2; thioether N-6): 1.45
